- assayComment: MM1S cell viability effects, profiling panel, calcein-AM fluorescence, 48 h, basal (AID 1165);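 also: viability of MM1S multiple myeloma cells under basal unstimulated conditions; test concentration not given here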
- recordedConditions: higher = more signal
Assign YES whenever z-score does not fall below -1; assign NO whenever it does.

INSERT INTO results (compound, group) VALUES
  ('COc1cc2c(cc1OC)CN(C(=O)[C@H]1[C@@H]3C(=O)O[C@@H](c4ccccc4)[C@@H](c4ccccc4)N3[C@@H](c3ccc(O)cc3)[C@]13C(=O)Nc1ccc(C#CC4=CCCCC4)cc13)CC2', 'YES'),
  ('CCOc1cc(C(O)C2C=CC3C(=O)N(c4ccccc4)C(=O)C3N2Nc2ccccc2)ccc1O (centres undefined)', 'NO'),
  ('COc1ccc(C(=O)O[C@H]2CC[C@]3(C)C4=C(CCC3C2(C)C)[C@]2(C)CC[C@H]([C@H](C)CCCC(C)C)[C@@]2(C)CC4)cc1 (some centres undefined)', 'YES'),
  ('C[C@@H]1ON(c2cccc(C(=O)OC(C)(C)C)c2)[C@H](c2ccc(Br)cc2)[C@H]1C(=O)N1C(=O)OC[C@H]1Cc1ccccc1', 'YES'),
  ('C=C(CCCC)C(=O)CC[C@@H](OC(=O)c1cccnc1)c1ccc(CO)o1', 'YES'),
  ('COc1ccc(CCN2C(=O)[C@@]3(c4ccc([N+](=O)[O-])cc4)CC(=O)N(C4CCCCC4)[C@@H]3c3ccc(CO)cc32)cc1', 'YES'),
  ('CCCCC(O)C1C=CC2C(=O)N(c3ccccc3)C(=O)C2N1Nc1ccccc1F (centres undefined)', 'YES'),
  ('CCCCN1CC=CC23O[C@@H]4/C=C\CCC(C)OC(=O)C4[C@H]2C(=O)N(CCCCCO)[C@@H]3C1=O (some centres undefined)', 'YES'),
  ('C=CCN1C(=O)[C@@]2(O[C@@H](CCO)[C@H]([Si](C)(C)c3ccc(OC)cc3)[C@H]2C)c2cc(NC(=O)c3ccc(OC)cc3)ccc21', 'NO'),
  ('[N-]=[N+]=NCc1ccccc1C[C@@]1(C(=O)NCC(O)CO)N=C(c2ccc(OCCCO)cc2)O[C@@H]1c1ccccc1N=[N+]=[N-] (some centres undefined)', 'NO');

Check if z-score >= -1 (inclusive). Item: "COCCOC(=O)N1C(=O)[C@@]2(c3ccccc31)[C@H](c1ccccc1OCCO)N1[C@H](c3ccccc3)[C@H](c3ccccc3)OC(=O)[C@H]1[C@@H]2C(=O)Nc1nc2ccccc2s1"
NO

Quick check: does "CCCC=C(CCC)[C@@H](NC(=O)Oc1ccc(F)cc1)c1ccc(C(=O)OC)cc1" have z-score greater than or equal to -1?
NO

In plain terms: is recorded z-score at least -1 for "C[C@@]1([C@@H](NC(=O)c2ccccc2)c2ccc(-c3ccccc3)cc2)C[C@H]1C1CCCCC1" ?
YES

Is z-score for CCOC1=C2C(CN(S(=O)(=O)c3ccc(C)cc3)C2c2ccc(C)cc2)C2C(=O)N(c3ccccc3)C(=O)C2C1 (centres undefined) at or above -1?
YES

# bool: z-score of "[N-]=[N+]=NCc1ccccc1[C@@H]1OC(c2ccc(OCCCO)cc2)=N[C@]1(CCS(=O)(=O)c1ccccc1)C(=O)NCc1ccccc1" >= -1
YES
